Would you kindly list Relative Phosphorylation to No Kinase Control, PKCa for each of these substances?
Target: protein kinase C-alpha (PKC α) (Homo sapiens, UniProt P17252)
Construct: GST; purchased SignalChem P61-18G
Experiment: In vitro phosphorylation of nucleocapsid peptides, ADP-Glo, PKCa
Assay type: biochemical
Conditions: Mean ± S.Dev. (n = 3); no kinase control = 100
Where no end group is shown, it is not given here. [ ]: non-standard residue; d: D form. pS = N[C@@H](COP(=O)(O)O)C(=O)O

Query: I would be grateful if you could share the reported Relative Phosphorylation to No Kinase Control, PKCa for SQASSRSSSRSRNS [SCV2-N [180-193], synthetic peptide modeled after SARS-CoV-2 nucleocapsid protein phosphorylation sites] .
Reply: 16,366 ± 261

Query: Please give the result for SSRSRNSSRNSTPG [SCV2-N [187-200], synthetic peptide modeled after SARS-CoV-2 nucleocapsid protein phosphorylation sites] too.
Reply: 12,687 ± 486

Query: Please give the result for RNSTPGSSRGT(pS)PAR (RNSTPGSSRGT[pS]PAR) [SCV2-N [195-209]-pS206, synthetic peptide modeled after SARS-CoV-2 nucleocapsid protein phosphorylation sites, pre-phosphorylated at S206] too.
Reply: 1531 ± 47
